What pKi was measured for each of the following?
- target-of-assay: Sushi domains (SD1/2) protein
- assay-comment: Fluorescence polarization (FP) competition assay with AJAP-1probe, calculated Ki
- Format: binding
- stated-conditions: purified peptides; read-out: Ki
Non-standard residues stand in square brackets, D forms with d. Residues, ends and D or L forms follow the SMILES beside them. Cya = N[C@@H](CS(=O)(=O)O)C(=O)O
One number for each entry, as −log10 of the molar value.

Parameter requested: pKi. Apply to each item below.
1. CCOc1ccc(C[C@H](NC(=O)[C@H](CO)NC(=O)[C@H](CC(=O)O)NC(=O)[C@H](CC(=O)O)NC(=O)[C@H](CCC(=O)O)NC(C)=O)C(=O)N[C@H](C(=O)N[C@@H](Cc2c[nH]c3ccccc23)C(=O)N[C@@H](Cc2c[nH]c3ccccc23)C(=O)NCC(=O)NCC(=O)N[C@@H](C)C(=O)N[C@@H](CC(=O)O)C(=O)N[C@H](C(=O)N[C@@H](CC(=O)O)C(N)=O)[C@@H](C)O)C(C)C)cc1 (Ac-EDDSY(Et)VWWGGADTD-NH2)
2. CC[C@H](C)[C@H](NC(=O)[C@H](Cc1ccccc1)NC(=O)[C@H](CCC(=O)O)NC(=O)[C@@H](NC(=O)[C@H](CCC(=O)O)NC(C)=O)[C@@H](C)O)C(=O)N[C@@H](CC(=O)O)C(=O)N[C@@H](Cc1c[nH]c2ccccc12)C(=O)NCC(=O)N1CCC[C@H]1C(=O)N[C@H](C(=O)NCC(=O)N[C@@H](CC(=O)O)C(=O)N[C@@H](CCC(=O)O)C(=O)N[C@@H](CC(=O)O)C(N)=O)[C@@H](C)O [Peptide 26, Ac-ETEFIDWGPTGDED-NH2] (Ac-ETEFIDWGPTGDED-NH2)
3. CC[C@H](C)[C@H](NC(=O)[C@H](C)NC(=O)[C@H](Cc1c[nH]c2ccccc12)NC(=O)[C@@H]1CCCN1C(C)=O)C(=O)N[C@H](C(=O)N[C@@H](Cc1c[nH]c2ccccc12)C(=O)NCC(=O)N1CCC[C@H]1C(=O)N[C@H](C(=O)N[C@H](C(=O)N[C@@H](CO)C(=O)N[C@@H](CCCNC(=N)N)C(=O)N[C@@H](CCC(=O)O)C(=O)N[C@@H](CC(=O)O)C(N)=O)C(C)C)[C@@H](C)O)C(C)C [PIANPWT, Ac-PWAIVWGPTVSRED-NH2] (Ac-PWAIVWGPTVSRED-NH2)
4. CC[C@H](C)[C@H](NC(=O)[C@H](Cc1ccccc1)NC(=O)[C@H](CCC(=O)O)NC(=O)[C@@H](NC(=O)[C@H](CCC(=O)O)NC(C)=O)[C@@H](C)O)C(=O)N[C@@H](CS(=O)(=O)O)C(=O)N[C@@H](Cc1c[nH]c2ccccc12)C(=O)NCC(=O)N1CCC[C@H]1C(=O)N[C@H](C(=O)NCC(=O)N[C@@H](CC(=O)O)C(=O)N[C@@H](CCC(=O)O)C(=O)N[C@@H](CC(=O)O)C(N)=O)[C@@H](C)O [ETEFI(Cya)WGPTGDED, Ac-ETEFI(Cya)WGPTGDED-NH2] (Ac-ETEFI[Cya]WGPTGDED-NH2)
5. CC[C@H](C)[C@H](NC(=O)[C@H](Cc1ccccc1)NC(=O)[C@H](CCC(=O)O)NC(=O)[C@@H](NC(=O)[C@H](CCC(=O)O)NC(=O)[C@@H](NC(C)=O)[C@@H](C)O)[C@@H](C)O)C(=O)N[C@@H](C)C(=O)N[C@@H](Cc1c[nH]c2ccccc12)C(=O)NCC(=O)N1CCC[C@H]1C(=O)N[C@H](C(=O)NCC(=O)N[C@@H](CC(=O)O)C(=O)N[C@@H](CCC(=O)O)C(=O)N[C@@H](CC(=O)O)C(N)=O)[C@@H](C)O [Peptide 15, Ac-TETEFIAWGPTGDED-NH2] (Ac-TETEFIAWGPTGDED-NH2)

OUT:
7.33
8.05
6.32
7.93
7.64

###

- target-of-assay: Sushi domains (SD1/2) protein
- assay-comment: Fluorescence polarization (FP) competition assay with AJAP-1probe, calculated Ki
- Format: binding
- stated-conditions: Table 4, truncation and elongation scans of APP epitope; read-out: Ki (nM) mean ± SEM
Residues, ends and D or L forms follow the SMILES beside them.
Task for the reader: assign each of the following compounds its reported Ki.
Numbers only, in nM.

compound: CC(=O)N[C@@H](CCC(=O)O)C(=O)N[C@@H](CCC(=O)O)C(=O)N[C@@H](CC(=O)O)C(=O)N[C@@H](CC(=O)O)C(=O)N[C@@H](CO)C(=O)N[C@@H](CC(=O)O)C(=O)N[C@H](C(=O)N[C@@H](Cc1c[nH]c2ccccc12)C(=O)N[C@@H](Cc1c[nH]c2ccccc12)C(=O)NCC(=O)NCC(=O)N[C@@H](C)C(=O)N[C@@H](CC(=O)O)C(N)=O)C(C)C (Ac-EEDDSDVWWGGAD-NH2)
Ki / nM: 534

Consider the record given below.
IN: # Ki lookup, item CC(=O)N[C@@H](CC(=O)O)C(=O)N[C@H](C(=O)N[C@@H](Cc1c[nH]c2ccccc12)C(=O)N[C@@H](Cc1c[nH]c2ccccc12)C(=O)NCC(=O)NCC(=O)N[C@@H](C)C(=O)N[C@@H](CC(=O)O)C(=O)N[C@H](C(=O)N[C@@H](CC(=O)O)C(=O)N[C@@H](Cc1ccc(O)cc1)C(=O)N[C@@H](C)C(=O)N[C@@H](CC(=O)O)C(N)=O)[C@@H](C)O)C(C)C (Ac-DVWWGGADTDYAD-NH2)
OUT: 6100

###

- target-of-assay: Sushi domains (SD1/2) protein
- assay-comment: Fluorescence polarization (FP) competition assay with AJAP-1probe, calculated Ki
- Type: binding
- stated-conditions: Table 10, deep mutational scanning validation variants of APPWT; read-out: Ki (nM) mean ± SEM
Residues, ends and D or L forms follow the SMILES beside them.
Assign Ki to each entry below.
One number for each entry, in nM.

compound: CC(=O)N[C@@H](CCC(=O)O)C(=O)N[C@@H](CC(=O)O)C(=O)N[C@@H](CC(=O)O)C(=O)N[C@@H](CO)C(=O)N[C@@H](CC(=O)O)C(=O)N[C@H](C(=O)N[C@@H](Cc1c[nH]c2ccccc12)C(=O)N[C@@H](Cc1c[nH]c2ccccc12)C(=O)NCC(=O)NCC(=O)N[C@@H](Cc1c[nH]cn1)C(=O)N[C@@H](CC(=O)O)C(=O)N[C@H](C(=O)N[C@@H](CC(=O)O)C(N)=O)[C@@H](C)O)C(C)C (Ac-EDDSDVWWGGHDTD-NH2)
target-of-assay: Sushi domains (SD1/2) protein
readout-units: nM
Ki: 346

IN: Query: Ki; subject: CC(=O)N[C@@H](CCC(=O)O)C(=O)N[C@@H](CC(=O)O)C(=O)N[C@@H](CC(=O)O)C(=O)N[C@@H](CO)C(=O)N[C@@H](CC(=O)O)C(=O)N[C@H](C(=O)N[C@@H](Cc1c[nH]c2ccccc12)C(=O)N[C@@H](Cc1c[nH]c2ccccc12)C(=O)NCC(=O)NCC(=O)N[C@@H](C)C(=O)N[C@@H](CC(=O)O)C(=O)N[C@@H](Cc1c[nH]cn1)C(=O)N[C@@H](CC(=O)O)C(N)=O)C(C)C (Ac-EDDSDVWWGGADHD-NH2)
OUT: 739

###

- target-of-assay: Sushi domains (SD1/2) protein
- assay-comment: Fluorescence polarization (FP) competition assay with AJAP-1probe, calculated Ki
- Assay type: binding
- stated-conditions: Table 7, Ala-, D-amino acids and N-methylation scans of APPWT; read-out: Ki (nM) mean ± SEM
Non-standard residues stand in square brackets, D forms with d. Residues, ends and D or L forms follow the SMILES beside them. NMeA = CN[C@@H](C)C(=O)O
quantity-kind: Ki (nM)
One number for each entry, in nM.

molecule: CC(=O)N[C@@H](CCC(=O)O)C(=O)N[C@@H](CC(=O)O)C(=O)N[C@@H](CC(=O)O)C(=O)N[C@@H](CO)C(=O)N[C@@H](CC(=O)O)C(=O)N[C@H](C(=O)N[C@@H](Cc1c[nH]c2ccccc12)C(=O)N[C@@H](Cc1c[nH]c2ccccc12)C(=O)NCC(=O)NCC(=O)N(C)[C@@H](C)C(=O)N[C@@H](CC(=O)O)C(=O)N[C@H](C(=O)N[C@@H](CC(=O)O)C(N)=O)[C@@H](C)O)C(C)C (Ac-EDDSDVWWGG[NMeA]DTD-NH2)
quantity-kind: Ki
observed: 704

IN: Test system Sushi domains (SD1/2) protein; read-out Ki; what value for CC(=O)N[C@@H](CCC(=O)O)C(=O)N[C@@H](CC(=O)O)C(=O)N[C@@H](C)C(=O)N[C@@H](CO)C(=O)N[C@@H](CC(=O)O)C(=O)N[C@H](C(=O)N[C@@H](Cc1c[nH]c2ccccc12)C(=O)N[C@@H](Cc1c[nH]c2ccccc12)C(=O)NCC(=O)NCC(=O)N[C@@H](C)C(=O)N[C@@H](CC(=O)O)C(=O)N[C@H](C(=O)N[C@@H](CC(=O)O)C(N)=O)[C@@H](C)O)C(C)C (Ac-EDASDVWWGGADTD-NH2) ?
OUT: 1830

Cited source for all entries: patent US20260193293A1
